Measured values drawn from patent US12371439B2 for this set.

- protocol notes: Stability investigation of the crystalline forms (HPLC purity, samples placed open and flat)
- Assay type: physicochemical
- experimental context: light (4500 Lux), Day 5
quantity measured: HPLC purity Day 5 (%)

Record request: HPLC purity Day 5 (%) value, item COC(=O)[C@H](c1ccccc1Cl)N1CC[C@@H]2SC(=O)C=C2C1 (racemic) [Comparative preparation example 3, reference compound] 97.70

Reported HPLC purity Day 5 (%), molecule COC(=O)[C@H](c1ccccc1Cl)N1CC[C@@H]2SC(=O)C=C2C1 [Example 6] : ____ 99.91

// query HPLC purity Day 5 (%) value for entry COC(=O)[C@H](c1ccccc1Cl)N1CC[C@@H]2SC(=O)C=C2C1 [Example 4] 99.89

HPLC purity Day 5 (%) for COC(=O)[C@H](c1ccccc1Cl)N1CC[C@@H]2SC(=O)C=C2C1 [Example 7] ? 99.88

Requested field: HPLC purity Day 5 (%). Item: COC(=O)[C@H](c1ccccc1Cl)N1CC[C@@H]2SC(=O)C=C2C1 [Example 3] 99.94

Look up HPLC purity Day 5 (%): COC(=O)[C@H](c1ccccc1Cl)N1CC[C@@H]2SC(=O)C=C2C1 (racemic) [Comparative preparation example 1, reference compound] 96.80

Could you tell me which HPLC purity Day 5 (%) is on file for COC(=O)[C@H](c1ccccc1Cl)N1CC[C@@H]2SC(=O)C=C2C1 [Example 5] ? 99.87

So what does the record say about HPLC purity Day 5 (%) for COC(=O)[C@H](c1ccccc1Cl)N1CC[C@@H]2SC(=O)C=C2C1 [Example 1] ? 99.82

Report HPLC purity Day 5 (%) for COC(=O)[C@H](c1ccccc1Cl)N1CC[C@@H]2SC(=O)C=C2C1 [Example 2] please. 99.92

Look up HPLC purity Day 5 (%) for this molecule: COC(=O)[C@H](c1ccccc1Cl)N1CC[C@@H]2SC(=O)C=C2C1 (racemic) [Comparative preparation example 2, reference compound] 96.35

###

- protocol notes: Stability investigation of the crystalline forms (HPLC purity, samples placed open and flat)
- Type: physicochemical
- experimental context: light (4500 Lux), Day 0
quantity measured: HPLC purity Day 0 (%)

What measured HPLC purity Day 0 (%) goes with COC(=O)[C@H](c1ccccc1Cl)N1CC[C@@H]2SC(=O)C=C2C1 [Example 1] ? 99.82

Record request: HPLC purity Day 0 (%) value, item COC(=O)[C@H](c1ccccc1Cl)N1CC[C@@H]2SC(=O)C=C2C1 (racemic) [Comparative preparation example 3, reference compound] 97.73

Using the record for COC(=O)[C@H](c1ccccc1Cl)N1CC[C@@H]2SC(=O)C=C2C1 [Example 7] , report its HPLC purity Day 0 (%). 99.88

# HPLC purity Day 0 (%) lookup, item COC(=O)[C@H](c1ccccc1Cl)N1CC[C@@H]2SC(=O)C=C2C1 [Example 6] 99.91

Look up HPLC purity Day 0 (%): COC(=O)[C@H](c1ccccc1Cl)N1CC[C@@H]2SC(=O)C=C2C1 [Example 4] 99.89

Find the recorded HPLC purity Day 0 (%) belonging to COC(=O)[C@H](c1ccccc1Cl)N1CC[C@@H]2SC(=O)C=C2C1 (racemic) [Comparative preparation example 2, reference compound] and report it. 96.43

Entry COC(=O)[C@H](c1ccccc1Cl)N1CC[C@@H]2SC(=O)C=C2C1 (racemic) [Comparative preparation example 1, reference compound] has what HPLC purity Day 0 (%)? 96.89

Entry under review: COC(=O)[C@H](c1ccccc1Cl)N1CC[C@@H]2SC(=O)C=C2C1 [Example 3] . Reported HPLC purity Day 0 (%)? 99.94

Need HPLC purity Day 0 (%), item COC(=O)[C@H](c1ccccc1Cl)N1CC[C@@H]2SC(=O)C=C2C1 [Example 2] 99.92

What value of measured HPLC purity Day 0 (%) is listed for COC(=O)[C@H](c1ccccc1Cl)N1CC[C@@H]2SC(=O)C=C2C1 [Example 5] ? 99.87
